pKi values for the compounds below.
- Measured On: Muscarinic M4 (Homo sapiens, UniProt P08173)
- Sequence (P08173 1-479): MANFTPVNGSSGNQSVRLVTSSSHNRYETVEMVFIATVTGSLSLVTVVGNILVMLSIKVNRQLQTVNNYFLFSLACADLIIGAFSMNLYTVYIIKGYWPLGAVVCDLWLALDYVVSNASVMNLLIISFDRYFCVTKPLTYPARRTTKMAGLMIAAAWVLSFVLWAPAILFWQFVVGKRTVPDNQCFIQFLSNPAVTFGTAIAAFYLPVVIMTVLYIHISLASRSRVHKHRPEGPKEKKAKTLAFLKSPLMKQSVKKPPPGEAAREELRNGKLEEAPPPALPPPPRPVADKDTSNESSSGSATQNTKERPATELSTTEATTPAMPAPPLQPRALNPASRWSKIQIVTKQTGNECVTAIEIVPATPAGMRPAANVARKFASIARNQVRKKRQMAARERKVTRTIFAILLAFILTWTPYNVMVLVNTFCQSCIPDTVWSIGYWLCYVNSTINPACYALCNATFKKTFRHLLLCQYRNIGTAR
pKi: −log10 of the molar value.

Compound | pKi
COc1ccc2c(c1)N(C[C@H](C)CN(C)C)c1ccccc1[S+]2[O-] (some centres unmarked) [Sulfoxide, levomepromazine sulfoxide] | 6.50
COc1ccc2c(c1)N(C[C@H](C)CN(C)C)c1ccccc1S2 [LMP, Levomepromazine] | 7.47
